measured.on: mouse semaphorin 3A (Sema3A) (Mus musculus)
Sequence (O08665 21-772): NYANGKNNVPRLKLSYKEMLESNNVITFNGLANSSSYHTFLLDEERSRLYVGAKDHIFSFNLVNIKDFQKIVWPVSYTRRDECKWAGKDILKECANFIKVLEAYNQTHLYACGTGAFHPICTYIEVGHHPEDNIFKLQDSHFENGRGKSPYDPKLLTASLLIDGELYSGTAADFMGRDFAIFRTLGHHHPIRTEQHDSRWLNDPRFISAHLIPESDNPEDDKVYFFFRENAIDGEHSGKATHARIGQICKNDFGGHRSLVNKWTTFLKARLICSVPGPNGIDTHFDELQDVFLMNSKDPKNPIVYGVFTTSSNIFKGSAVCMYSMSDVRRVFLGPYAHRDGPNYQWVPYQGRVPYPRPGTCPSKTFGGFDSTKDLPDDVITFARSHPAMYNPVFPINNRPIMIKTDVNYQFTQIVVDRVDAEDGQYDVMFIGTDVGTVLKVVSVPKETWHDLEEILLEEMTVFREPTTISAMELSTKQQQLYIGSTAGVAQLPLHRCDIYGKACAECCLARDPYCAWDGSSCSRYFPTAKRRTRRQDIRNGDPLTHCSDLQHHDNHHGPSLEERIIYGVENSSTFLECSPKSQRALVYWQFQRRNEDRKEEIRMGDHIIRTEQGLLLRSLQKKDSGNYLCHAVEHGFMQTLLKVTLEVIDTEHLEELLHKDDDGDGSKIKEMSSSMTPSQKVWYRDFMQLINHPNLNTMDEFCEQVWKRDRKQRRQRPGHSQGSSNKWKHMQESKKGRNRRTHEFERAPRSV
test.protocol: Suppression of growth cone collapse activity of Sema3A (chick embryo dorsal root ganglions)
Assay type: cell-based
condition.context: E7 chick embryo dorsal root ganglions; 2 units/ml Sema3A added 1 hour after compound; concentration where collapse rate = (A+B)/2; read-out: IC50 of inhibition of the growth cone collapse activity of Sema3A (converted)
Catalogue of IC50 readings, one per entry.
Your answer should be a plain number; it is taken to be in nM.

CC(=O)c1c(C)c(C(=O)C2(O)COc3cc(O)c(O)cc3C2=O)cc2c(=O)c3c(C(=O)O)c(O)c(O)cc3oc12 (stereo not drawn); 182

Inquiry: Tell me the measured IC50 of CC(=O)c1c(C)c(C(=O)C2COc3cc(O)c(O)c(C(=O)O)c3C2=O)cc2c(=O)c3c(C(=O)O)cc(O)cc3oc12 (stereo not drawn) , please.
Reply text: 1780

* * *

Tested on: COS7 cells
test.protocol: Effect on cell proliferation (MTT)
Format: cell-based
condition.context: Chlorocebus aethiops, COS-7, 48 h, two days, read-out: IC50, inhibitory rate for cell proliferation
measurement.label: IC50

Recorded results for 4 molecules are shown here.
CC(=O)c1cc2c(=O)c3c(C(=O)O)c(O)c(O)cc3oc2c(C(C)=O)c1-c1coc2cc(O)c(O)c(C(=O)O)c2c1=O; > 300 µg/mL
CC(=O)c1c(C)c(C(=O)C2COc3cc(O)c(O)c(C(=O)O)c3C2=O)cc2c(=O)c3c(C(=O)O)c(O)c(O)cc3oc12 (stereo not shown); > 300 µg/mL
CC(=O)c1cc2c(=O)c3c(C(=O)O)c(O)c(O)cc3oc2c(C(C)=O)c1-c1coc2cc(O)c(O)cc2c1=O; > 100 µg/mL
CC(=O)c1c(C)c(C(=O)C2COc3cc(O)c(O)cc3C2=O)cc2c(=O)c3cc(O)c(O)cc3oc12 (stereo not shown); > 100 µg/mL

Inquiry: Tell me the measured IC50 of CC(=O)c1cc2c(=O)c3c(C(=O)O)cc(O)cc3oc2c(C(C)=O)c1-c1coc2cc(O)c(O)c(C(=O)O)c2c1=O , please.
Reply text: > 100 µg/mL

Inquiry: Tell me the measured IC50 of CC(=O)c1cc2c(=O)c3cc(O)c(O)cc3oc2c(C(C)=O)c1-c1coc2cc(O)c(O)c(C(=O)O)c2c1=O , please.
Reply text: > 100 µg/mL

Inquiry: Tell me the measured IC50 of CC(=O)c1c(C)c(C(=O)C2COc3cc(O)c(O)c(C(=O)O)c3C2=O)cc2c(=O)c3c(C(=O)O)cc(O)cc3oc12 (stereo not shown) , please.
Reply text: > 100 µg/mL
